- System: T1, human TREM2 (human, UniProt Q9NZC2 19-174, limits assumed)
- T1 construct: also called triggering receptor expressed on myeloid cells 2
- T1 sequence: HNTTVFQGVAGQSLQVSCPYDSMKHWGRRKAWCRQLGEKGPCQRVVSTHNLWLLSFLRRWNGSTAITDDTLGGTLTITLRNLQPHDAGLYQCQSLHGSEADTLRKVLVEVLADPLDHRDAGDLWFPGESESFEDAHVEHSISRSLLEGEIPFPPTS
- Measurement Protocol: 2nd screen, 100 nM
The entries below are paired with their reported Binding Signal.

For V32 (antibody, V domains shown, also called 6E7 variant V32) VH: EVQLVQSGAEVKKPGESLKISCKGSGYSFTSYWIAWVRQMPGKGLEWMGIIYPGDSDTRYSNSFQGQVTISADKSISTAYLQWSSLKASDTAMYFCARQRTFYYDSSDYFDYWGQGTLVTVSS VL: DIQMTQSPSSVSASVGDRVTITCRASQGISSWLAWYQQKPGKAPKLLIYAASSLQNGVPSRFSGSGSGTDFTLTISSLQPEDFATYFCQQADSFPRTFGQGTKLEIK , write its Binding Signal.
0.89 fold over 6E7 parental antibody

For V66 (antibody, V domains shown, also called 6E7 variant V66) VH: EVQLVQSGAEVKKPGESLKISCKGSGTSFTSYWIAWVRQMPGKGLEWMGIIYPGDSDTRYSPSFQGQVTISADKSISTAYLQWSSLKASDTAMYFCARQRTFYYDSSDYFDYWGQGTLVTVSS VL: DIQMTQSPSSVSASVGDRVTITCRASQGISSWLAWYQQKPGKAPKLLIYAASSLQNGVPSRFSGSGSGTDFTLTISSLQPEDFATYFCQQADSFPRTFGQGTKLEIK , write its Binding Signal.
0.74 fold over 6E7 parental antibody
